- System: SN12C renal
- TEST SUMMARY: NCI tumour cell line growth inhibition, 48 h
Is TGI at least 20 µM? Then Y. If not, N.

Here are 6 compounds together with their reported answers.
COMPOUND | LABEL CLASS
O=S(=O)(NC1=NCCN1C(=S)SN1CCn2c1nsc2=S)c1cccc(Cl)c1 | Y
CS(=O)(=O)CCNCc1ccc(-c2ccc3ncnc(Nc4ccc(OCc5ccccc5)cc4)c3c2)o1 | Y
C/C(Cl)=N/OC(=O)Nc1ccc(S(N)(=O)=O)c(C)c1 | Y
O=C1c2[nH]c3ccc(Br)cc3c2CCN1Cc1ccc(Cl)cc1 | Y
COc1ccc(/C=C2\CCC(C)C3C2=NN(c2ccccc2)C3c2ccc(OC)c(OC)c2)cc1OC (configuration not stated) | N
O=c1[nH]nc(-c2ccccc2)n1/N=C/c1ccc([N+](=O)[O-])cc1 | Y

Inquiry: Entry `O=C(CCc1nnc2sc(-c3ccc(Cl)cc3Cl)nn12)c1nc2ccccc2[nH]1` : is its TGI no less than 20 µM?
Reply text: N

* * *

- System: NCI-H522 lung
- TEST SUMMARY: NCI tumour cell line growth inhibition, 48 h
Is TGI at least 20 µM? Then Condition met. If not, Condition not met.

Here are 4 compounds together with their reported answers.
COMPOUND | LABEL CLASS
C/C(CC(=O)Nc1cc(C)ccc1C)=N\NC(=O)c1ccncc1 | Condition met
COc1ccc2c(c1)-c1nc(=S)n(CCCN(C)C)c3ccc([N+](=O)[O-])c(c13)N2 | Condition not met
CCOC1Oc2ccc(C)cc2C(=O)/C1=C\Nc1ccc(C(N)=O)cc1 (configuration not stated) | Condition met
O=C(Nc1ccncc1)C(=O)c1cn(S(=O)(=O)c2cccc(F)c2)c2ccccc12 | Condition not met

In the following, a different compound is considered.
Inquiry: Entry `COC(=O)Nc1nc2ccc(Oc3ccc(NC(=O)Nc4cc(C(F)(F)F)ccc4F)cc3)cc2s1` : is its TGI no less than 20 µM?
Reply text: Condition met

* * *

- System: OVCAR-4 ovarian
- TEST SUMMARY: NCI tumour cell line growth inhibition, 48 h
METRIC: TGI

Solved entries (count: 2):
COMPOUND | REPORTED RESULT
Nc1cccnc1NCC1(CO)CCCC1 | > 100 µM
C/C(O)=C(\N=O)C(=O)Nc1ccc(Cl)cc1Cl | > 100 µM

Inquiry: Reported TGI, compound O=C1CCC(N2C(=O)c3ccccc3C2=O)C(=O)N1CO (stereo not given) : ____
Reply text: > 100 µM

Inquiry: And the next one, COc1ccc(CC2CCc3nc(N)nc(N)c3C2)cc1OC (stereo not given) ?
Reply text: > 100 µM

Inquiry: And the next one, CCCC/C=C/C/C=C/CCCCCCCCC(=O)OCC1CCCN2CCCCC12 (stereo not given) ?
Reply text: > 100 µM

* * *

Each entry below lists one item and its recorded TGI value.
- Test system: RPMI-8226 leukemia
- TEST SUMMARY: NCI tumour cell line growth inhibition, 48 h

Solved entries (count: 2):
STRUCTURE SMILES | TGI
CC(=O)N(C(C)=O)n1c(Cc2ccc(Cl)cc2)n[nH]c1=O | > 100 µM
O=C1c2ccccc2C(=O)c2c1cc(S(=O)(=O)O)c(O)c2O | > 100 µM

// moving on: another record for TGI
Inquiry: Reported TGI, molecule `O=S(=O)(NC1=NCCN1C(=S)SN1CCn2c1nsc2=S)c1cccc(Cl)c1` : ____
Reply text: > 100 µM

* * *

- Test system: HOP-92 NSCLC
- TEST SUMMARY: NCI tumour cell line growth inhibition, 48 h
Each entry below lists one item and its recorded TGI value.

COMPOUND | TGI
CC(C)(C)OC(=O)CN1C(=O)CC1CC(=O)c1ccccc1 (stereo not given) | > 100 µM
CC(C)(C)c1cc(CCC(=O)Nc2ccc(Cl)cc2)nc(NC#N)n1 | > 100 µM
CCCCC(=O)c1ccc2ccccc2c1O | > 100 µM

Inquiry: Param readout= TGI; system= HOP-92 NSCLC; entry= `O=C(CCN(C(=O)O)S(=O)(=O)c1ccc(NC(=O)c2ccccc2)cc1)NC1CCCCC1` ; returns value.
Reply text: > 100 µM

Inquiry: And the next one, `Cc1cc(C)c2c(O)c(S(=O)(=O)c3ccc(Cl)cc3)c(=O)oc2c1` ?
Reply text: > 100 µM

Inquiry: And the next one, CCCC1N2CCCCC2[C@@H]2c3[nH]c4ccccc4c3CCN12 (stereo not given in full) ?
Reply text: > 100 µM

Inquiry: And the next one, `O=C(O)C(=Cc1ccc(-c2ccccc2)cc1)C(=O)O` ?
Reply text: > 68.6 µM

* * *

- System: A498 renal
- TEST SUMMARY: NCI tumour cell line growth inhibition, 48 h
Each entry below lists one item and its recorded TGI value.

Solved entries (count: 8):
MOLECULE | MEASUREMENT TARGET | TGI
O=C(CCc1cc(-c2ccccc2)nc(=S)[nH]1)N(Cc1ccccc1)Cc1ccccc1 | A498 renal | > 100 µM
c1ccc(-c2nc3ccccc3n3c(CN4CCCCC4)nnc23)cc1 | A498 renal | > 100 µM
Cc1cc(N(CCC#N)CCC#N)ccc1/C=C1\N=C(c2cc([N+](=O)[O-])ccc2Cl)N(c2cccc(Cl)c2)C1=O | A498 renal | > 100 µM
O=C(Nc1ccncc1)C(=O)c1cn(S(=O)(=O)c2cccc(F)c2)c2ccccc12 | A498 renal | 97 µM
N#Cc1c(=O)n(-c2ccccc2)c(O)c2c(N)n[nH]c12 | A498 renal | > 100 µM
O=C1c2ccccc2C(=O)c2c1cc(S(=O)(=O)O)c(O)c2O | A498 renal | > 100 µM
OCCCNc1nc(=S)[nH]c2[nH]ncc12 | A498 renal | 48.2 µM
O=C1CCC(N2C(=O)c3ccccc3C2=O)C(=O)N1CO (stereo not given) | A498 renal | > 100 µM

Inquiry: Reported TGI, molecule `CCCn1c(=S)sc2c1nc(C)n1c(Nc3ccccc3)nnc21` : ____
Reply text: 14.1 µM

Inquiry: And the next one, `COc1ccc(NC(=O)CC(=O)N/N=C/c2ccc(N(CCC#N)S(C)(=O)=O)cc2)cc1` ?
Reply text: > 100 µM

* * *

Each entry below lists one item and its recorded TGI value.
- Test system: HS 578T breast
- TEST SUMMARY: NCI tumour cell line growth inhibition, 48 h

Solved entries (count: 2):
STRUCTURE SMILES | TGI
COc1ccc2c(c1)CCCN2c1c2ccccc2nc2ccccc12 | 5.86 µM
COc1ccccc1NC(=S)Nc1cc(C)cc(C)n1 | > 100 µM

// moving on: another record for TGI
Inquiry: Reported TGI, molecule `C[C@]12CC[C@H](OC(=O)Cc3ccc(N(CCCl)CCCl)cc3)CC1=CC[C@@H]1[C@@H]2CC[C@]2(C)C(=O)CC[C@@H]12` : ____
Reply text: > 100 µM

* * *

- System: IGROV1 ovarian
- TEST SUMMARY: NCI tumour cell line growth inhibition, 48 h
METRIC: TGI

MOLECULE | TGI
Cc1ccc(/C(Cl)=C/C=C(C#N)C#N)cc1 | 16.2 µM
Cc1cc2c(cc1Cl)SC1=NN(C)S(=O)N1S2(=O)=O (stereo not drawn) | > 100 µM
O=C1CSSCC(=O)Nc2ccccc2N1 | > 100 µM
Cc1cc(Cl)cc2c1NC(=O)C2(O)CC(=O)c1ccco1 (stereo not drawn) | > 100 µM
Cc1ccc(NC(=O)CC(=O)n2nc(C)c(N=Nc3ccccc3C(=O)O)c2C)cc1 | > 100 µM

Inquiry: Reported TGI, molecule `CCOCC(=O)N[C@H]1CCc2cc(OC)c(OC)c(OC)c2-c2ccc(OC)c(=O)cc21` : ____
Reply text: > 100 µM

Inquiry: And the next one, `[Cl-].[Rh+3].c1cnc2c(c1)ccc1cccnc12.c1cnc2c(c1)ccc1cccnc12.c1cnc2c(c1)ccc1cccnc12` ?
Reply text: > 100 µM

Inquiry: And the next one, `C[C@]12CC[C@H](OC(=O)Cc3ccc(N(CCCl)CCCl)cc3)CC1=CC[C@@H]1[C@@H]2CC[C@]2(C)C(=O)CC[C@@H]12` ?
Reply text: > 100 µM

* * *

- Tested on: HL-60(TB) leukemia
- TEST SUMMARY: NCI tumour cell line growth inhibition, 48 h
METRIC: TGI

COMPOUND | MEASUREMENT TARGET | TGI
Nc1cccnc1NCC1(CO)CCCC1 | HL-60(TB) leukemia | > 100 µM
COC(=O)CC(c1cn(S(=O)(=O)c2ccc(C)cc2)c2ccccc12)C1C[C@@H](C(=O)OC)N(C(=O)OC(C)(C)C)C1=O (some centres not stated) | HL-60(TB) leukemia | > 100 µM
NC(=O)NS(=O)(=O)c1ccc(N2N=C(C(F)(F)F)CC2c2cc(C(F)(F)F)cc(C(F)(F)F)c2)cc1 (configuration not stated) | HL-60(TB) leukemia | > 100 µM
CC(=O)OCC1OC(NC(=S)N/N=C2\CC(c3ccccc3)Oc3ccccc32)C(OC(C)=O)C(OC(C)=O)C1OC(C)=O (configuration not stated) | HL-60(TB) leukemia | > 100 µM
Cc1cc(N(CCC#N)CCC#N)ccc1/C=C1\N=C(c2cc([N+](=O)[O-])ccc2Cl)N(c2cccc(Cl)c2)C1=O | HL-60(TB) leukemia | > 100 µM

Inquiry: Reported TGI, compound COc1cc(/C=C2/SC(c3ccccc3)N(c3ccccc3Cl)C2=O)cc(OC)c1OC (configuration not stated) : ____
Reply text: > 100 µM

Inquiry: And the next one, N#CC12CNCC1CN=N2 (configuration not stated) ?
Reply text: > 100 µM

Inquiry: And the next one, `Cc1cccc(C(C)C)c1NC(=O)/C(Cc1c([N+](=O)[O-])cccc1[N+](=O)[O-])=N/NC(=O)CC#N` ?
Reply text: > 100 µM

Inquiry: And the next one, COC(=O)/C=C(/C=C1/C(C#N)=C(N)N(c2ccc(Cl)cc2)C1(C)/C(=C/C(=O)OC)C(=O)OC)C(=O)OC (configuration not stated) ?
Reply text: 41.8 µM

Inquiry: And the next one, `CCOC(=O)C1(Cc2ccccc2)C=CN(C(=O)c2ccccc2)C=C1` ?
Reply text: 45.7 µM

Inquiry: And the next one, `CN(CCC(=O)O)C1=Nc2ccc(Cl)cc2C(c2ccccc2)=[N+]([O-])C1` ?
Reply text: > 100 µM

Inquiry: And the next one, `CC/C=C\C[C@H](F)C/C=C1/C(=O)C=C[C@@H]1C/C=C\CCCC(=O)O` ?
Reply text: 16.8 µM

Inquiry: And the next one, `CS(=O)(=O)CCNCc1ccc(-c2ccc3ncnc(Nc4ccc(OCc5ccccc5)cc4)c3c2)o1` ?
Reply text: 14 µM
